In this section, each of the molecules is paired with its reported pIC50.
Biological target: PIK3CB (Human)
Experiment: Assessment of PIK3CB Kinase Activity
pIC50: −log10 of the molar value.

>  <structure.string>
COc1ncc(-c2cccc3cc([C@H](C)Nc4ncnc(N)c4C#N)n(-c4ccon4)c(=O)c23)cn1

>  <pIC50>
< 5.00

$$$$
>  <structure.string>
C[C@H](Nc1ncnc(N)c1C#N)c1cc2cccc(Cl)c2c(C(=O)NC2CCOCC2)n1

>  <pIC50>
< 5.00

$$$$
>  <structure.string>
COc1cc(-c2cccc3cc([C@H](C)Nc4nc(N)ncc4[N+](=O)[O-])n(-c4ccccc4)c(=O)c23)ccn1

>  <pIC50>
< 5.00

$$$$
>  <structure.string>
COc1cc(-c2cccc3cc([C@H](C)Nc4nc(N)ncc4C(=O)N(C)CCO)n(-c4ccccc4)c(=O)c23)ccn1

>  <pIC50>
< 5.00

$$$$
>  <structure.string>
C[C@H](Nc1ncnc(N)c1C#N)c1cc2cccc(Cl)c2c(=O)n1-c1ccon1

>  <pIC50>
< 5.00

$$$$
>  <structure.string>
Cc1ncc(-c2cccc3cc([C@H](C)Nc4nc(N)ncc4C#N)n(-c4ccccc4)c(=O)c23)cn1

>  <pIC50>
< 5.00

$$$$
>  <structure.string>
COc1cc(-c2cccc3cc([C@@H](C)Nc4nc(N)ncc4C#N)n(-c4ccccc4)c(=O)c23)ccn1

>  <pIC50>
< 5.00

$$$$
>  <structure.string>
Cc1ncc(-c2cccc3nc([C@H](C)Nc4nc(N)ncc4C#N)n(-c4ccccc4)c(=O)c23)cn1

>  <pIC50>
< 5.00

$$$$
>  <structure.string>
C[C@H](Nc1ncnc(N)c1[N+](=O)[O-])c1cc2cccc(Cl)c2c(=O)n1-c1ccccc1

>  <pIC50>
> 7.00

$$$$
>  <structure.string>
COc1ccc(-c2cnc(N)nc2N[C@@H](C)c2cc3cccc(Cl)c3c(=O)n2-c2ccccc2)cn1

>  <pIC50>
< 5.00

$$$$
>  <structure.string>
C[C@H](Nc1nc(N)ncc1C#N)c1cc2cccc(Cl)c2c(=O)n1-c1cscn1

>  <pIC50>
> 7.00

$$$$

---

Below, each entry is listed alongside its reported pIC50.
Target: PIK3CG (human) (UniProt P48736)
Sequence (P48736 whole entry, looked up): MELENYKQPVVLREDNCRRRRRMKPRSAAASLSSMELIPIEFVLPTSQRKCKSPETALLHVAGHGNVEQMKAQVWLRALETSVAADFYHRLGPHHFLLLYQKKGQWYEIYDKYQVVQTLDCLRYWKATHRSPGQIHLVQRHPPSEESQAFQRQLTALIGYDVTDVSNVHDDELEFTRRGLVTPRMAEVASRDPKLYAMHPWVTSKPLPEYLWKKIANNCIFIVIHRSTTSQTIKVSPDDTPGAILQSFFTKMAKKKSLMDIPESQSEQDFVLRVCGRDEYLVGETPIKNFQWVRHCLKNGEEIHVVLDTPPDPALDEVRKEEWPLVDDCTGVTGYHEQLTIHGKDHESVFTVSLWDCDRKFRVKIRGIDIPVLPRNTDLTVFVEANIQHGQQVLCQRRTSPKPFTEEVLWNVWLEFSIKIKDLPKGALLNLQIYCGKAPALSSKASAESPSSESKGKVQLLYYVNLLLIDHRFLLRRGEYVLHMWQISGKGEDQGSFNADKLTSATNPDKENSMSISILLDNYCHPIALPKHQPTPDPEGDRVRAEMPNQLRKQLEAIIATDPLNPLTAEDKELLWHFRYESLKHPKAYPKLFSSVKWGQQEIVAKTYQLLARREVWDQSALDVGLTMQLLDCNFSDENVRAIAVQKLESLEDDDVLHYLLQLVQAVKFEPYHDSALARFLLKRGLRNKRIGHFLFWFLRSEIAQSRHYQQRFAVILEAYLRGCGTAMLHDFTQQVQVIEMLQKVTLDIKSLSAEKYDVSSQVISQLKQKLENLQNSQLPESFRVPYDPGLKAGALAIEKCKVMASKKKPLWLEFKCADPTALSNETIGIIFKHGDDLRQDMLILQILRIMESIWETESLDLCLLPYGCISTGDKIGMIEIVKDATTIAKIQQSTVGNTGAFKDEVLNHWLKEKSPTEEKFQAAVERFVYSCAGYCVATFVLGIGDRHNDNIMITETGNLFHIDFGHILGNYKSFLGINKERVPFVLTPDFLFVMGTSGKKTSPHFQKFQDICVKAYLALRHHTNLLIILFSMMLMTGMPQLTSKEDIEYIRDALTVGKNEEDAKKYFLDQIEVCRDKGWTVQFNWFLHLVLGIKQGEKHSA
pIC50: −log10 of the molar value.
quantity: pIC50

>  <structure.string>
COc1ccc(-c2cccc3cc([C@H](C)Nc4nc(N)ncc4C#N)n(-c4ccccc4)c(=O)c23)nc1

>  <measured.value>
> 7.00

$$$$
>  <structure.string>
C[C@H](Nc1nc(N)ncc1C#N)c1cc2cccc(Cl)c2c(C(=O)NC2CCOCC2)n1

>  <measured.value>
< 5.00

$$$$
>  <structure.string>
C[C@H](Nc1nc(N)ncc1C#N)c1cc2cccc(-c3cncc(O)c3)c2c(=O)n1-c1ccccc1

>  <measured.value>
> 7.00

$$$$
>  <structure.string>
C[C@H](Nc1nc(N)ncc1C#N)c1cc2cccc(Cl)c2c(=O)n1-c1cc(F)cc(F)c1

>  <measured.value>
> 7.00

$$$$
>  <structure.string>
Cc1cc(-c2cccc3cc([C@H](C)Nc4nc(N)ncc4C#N)n(-c4ccccc4)c(=O)c23)cn(C)c1=O

>  <measured.value>
> 7.00

$$$$
>  <structure.string>
COc1cccc2cc([C@H](C)Nc3nc(N)ncc3C#N)n(-c3ccccc3)c(=O)c12

>  <measured.value>
6.00 to 7.00

$$$$
>  <structure.string>
C[C@H](Nc1nc(N)ncc1C(=O)N1CCC1)c1cc2cccc(-c3cnn(C)c3)c2c(=O)n1-c1ccccc1

>  <measured.value>
> 7.00

$$$$
>  <structure.string>
C[C@H](Nc1nc(N)ncc1-c1ccsc1)c1cc2cccc(Cl)c2c(=O)n1-c1ccccc1

>  <measured.value>
> 7.00

$$$$
>  <structure.string>
Cc1ncc(-c2cccc3cc([C@H](C)Nc4nc(N)ncc4C#N)n(-c4ccccc4)c(=O)c23)s1

>  <measured.value>
> 7.00

$$$$

---

Molecular target: PIK3CD (Human) (UniProt O00329)
Sequence (O00329 whole entry, looked up): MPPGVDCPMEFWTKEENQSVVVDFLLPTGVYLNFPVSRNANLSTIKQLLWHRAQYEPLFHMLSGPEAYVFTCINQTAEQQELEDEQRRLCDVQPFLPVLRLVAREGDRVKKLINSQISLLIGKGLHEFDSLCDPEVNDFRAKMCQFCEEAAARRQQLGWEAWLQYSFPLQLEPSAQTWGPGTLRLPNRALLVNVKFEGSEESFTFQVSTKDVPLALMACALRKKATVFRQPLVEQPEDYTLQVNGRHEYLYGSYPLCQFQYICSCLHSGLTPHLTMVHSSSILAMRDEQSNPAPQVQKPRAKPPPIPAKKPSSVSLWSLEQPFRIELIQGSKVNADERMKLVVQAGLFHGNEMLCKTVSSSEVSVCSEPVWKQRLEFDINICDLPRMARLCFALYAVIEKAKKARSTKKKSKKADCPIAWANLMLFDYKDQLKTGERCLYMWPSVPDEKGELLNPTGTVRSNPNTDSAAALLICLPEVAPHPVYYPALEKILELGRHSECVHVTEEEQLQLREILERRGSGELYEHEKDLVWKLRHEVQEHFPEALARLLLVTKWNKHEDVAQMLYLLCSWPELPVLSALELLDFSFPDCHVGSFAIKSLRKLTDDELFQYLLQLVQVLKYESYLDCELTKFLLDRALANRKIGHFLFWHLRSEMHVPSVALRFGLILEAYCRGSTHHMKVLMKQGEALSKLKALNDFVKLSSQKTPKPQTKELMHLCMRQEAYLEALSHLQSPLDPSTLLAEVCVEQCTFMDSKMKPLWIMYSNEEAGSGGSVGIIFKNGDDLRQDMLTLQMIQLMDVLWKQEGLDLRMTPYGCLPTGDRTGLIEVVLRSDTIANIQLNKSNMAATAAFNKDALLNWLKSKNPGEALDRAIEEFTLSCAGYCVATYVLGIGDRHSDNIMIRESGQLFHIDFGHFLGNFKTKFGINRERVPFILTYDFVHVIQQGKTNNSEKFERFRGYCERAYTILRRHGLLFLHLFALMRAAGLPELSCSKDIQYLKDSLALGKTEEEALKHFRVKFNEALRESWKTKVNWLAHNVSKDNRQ
Experiment: Assessment of PIK3CD Kinase Activity
quantity: IC50

>  <structure.string>
CC#Cc1cccc2cc([C@H](C)Nc3nc(N)ncc3C#N)n(-c3ccccc3)c(=O)c12

>  <quantity>
IC50

>  <measured.value>
< 100 nM

$$$$
>  <structure.string>
C[C@H](Nc1nc(N)ncc1C#N)c1cc2cccc(-c3ccnc(N)c3)c2c(=O)n1-c1ccccc1

>  <quantity>
IC50

>  <measured.value>
< 100 nM

$$$$
>  <structure.string>
COc1cncc(-c2cccc3cc([C@H](C)Nc4nc(N)ncc4C#N)n(-c4cccc(F)c4)c(=O)c23)c1

>  <quantity>
IC50

>  <measured.value>
< 100 nM

$$$$
>  <structure.string>
C[C@H](Nc1nc(N)ncc1C#N)c1nc2cccc(-c3ccnnc3)c2c(=O)n1-c1ccccc1

>  <quantity>
IC50

>  <measured.value>
< 100 nM

$$$$
>  <structure.string>
COc1cc(-c2cccc3nc([C@H](C)Nc4nc(N)ncc4C#N)n(-c4ccccc4)c(=O)c23)ccn1

>  <quantity>
IC50

>  <measured.value>
< 100 nM

$$$$
>  <structure.string>
COc1cc(-c2cccc3cc([C@H](C)Nc4nc(N)nc(C)c4C#N)n(-c4ccccc4)c(=O)c23)ccn1

>  <quantity>
IC50

>  <measured.value>
< 100 nM

$$$$
>  <structure.string>
C[C@H](Nc1nc(N)ncc1C#N)c1cc2cccc(-c3ccc(C#N)cc3)c2c(=O)n1-c1ccccc1

>  <quantity>
IC50

>  <measured.value>
< 100 nM

$$$$
>  <structure.string>
C[C@H](Nc1nc(N)ncc1C#N)c1cc2cccc(-c3c[nH]nn3)c2c(=O)n1-c1ccccc1

>  <quantity>
IC50

>  <measured.value>
< 100 nM

$$$$
>  <structure.string>
C[C@H](Nc1ncnc(N)c1C#N)c1cc2cccc(Cl)c2c(=O)n1-c1ccon1

>  <quantity>
IC50

>  <measured.value>
100 to 1000 nM

$$$$
>  <structure.string>
C=CS(=O)(=O)Nc1cccc(-c2cnc(N)nc2N[C@@H](C)c2cc3cccc(Cl)c3c(=O)n2-c2ccccc2)c1

>  <quantity>
IC50

>  <measured.value>
< 100 nM

$$$$
>  <structure.string>
COc1cccc(-n2c([C@H](C)Nc3nc(N)ncc3C#N)cc3cccc(Cl)c3c2=O)c1

>  <quantity>
IC50

>  <measured.value>
100 to 1000 nM

$$$$
>  <structure.string>
COc1cc(-c2cccc3cc([C@H](C)Nc4nc(N)ncc4-c4cnc(OC)s4)n(-c4ccccc4)c(=O)c23)ccn1

>  <quantity>
IC50

>  <measured.value>
< 100 nM

$$$$
>  <structure.string>
Cc1ncc(-c2cccc3cc([C@H](C)Nc4ncnc(N)c4C#N)n(-c4ccon4)c(=O)c23)cn1

>  <quantity>
IC50

>  <measured.value>
100 to 1000 nM

$$$$
>  <structure.string>
C[C@H](Nc1nc(N)ncc1C#N)c1cc2cccc(C#CCCC(=O)N3CCCC3)c2c(=O)n1-c1ccccc1

>  <quantity>
IC50

>  <measured.value>
< 100 nM

$$$$
>  <structure.string>
Cc1cc(-c2cccc3nc([C@H](C)Nc4nc(N)ncc4C#N)n(-c4ccccc4)c(=O)c23)ccn1

>  <quantity>
IC50

>  <measured.value>
< 100 nM

$$$$
>  <structure.string>
CNc1cc(-c2cccc3cc([C@H](C)Nc4nc(N)ncc4C#N)n(-c4ccccc4)c(=O)c23)ccn1

>  <quantity>
IC50

>  <measured.value>
< 100 nM

$$$$
>  <structure.string>
C[C@H](Nc1nc(N)ncc1C#N)c1cc2cccc(-c3ccc(O)nc3)c2c(=O)n1-c1ccccc1

>  <quantity>
IC50

>  <measured.value>
< 100 nM

$$$$
>  <structure.string>
Cc1cc(-c2cccc3cc([C@H](C)Nc4nc(N)ncc4C#N)n(-c4ccccc4)c(=O)c23)ccn1

>  <quantity>
IC50

>  <measured.value>
< 100 nM

$$$$
>  <structure.string>
CCOc1nc(-c2cnc(N)nc2N[C@@H](C)c2cc3cccc(-c4cnc(OC)nc4)c3c(=O)n2-c2ccccc2)cs1

>  <quantity>
IC50

>  <measured.value>
< 100 nM

$$$$
>  <structure.string>
CCn1c([C@H](C)Nc2nc(N)ncc2C#N)cc2cccc(Cl)c2c1=O

>  <quantity>
IC50

>  <measured.value>
< 100 nM

$$$$
>  <structure.string>
C[C@H](Nc1nc(N)ncc1C#N)c1cc2cccc(Cl)c2c(=O)n1-c1ccc(OC(F)(F)F)cc1

>  <quantity>
IC50

>  <measured.value>
100 to 1000 nM

$$$$

---

Biological target: PIK3CB (Human)
Experiment: Assessment of PIK3CB Kinase Activity
quantity: IC50

>  <structure.string>
COC(=O)c1cccc(-n2c([C@H](C)Nc3nc(N)ncc3C#N)cc3cccc(Cl)c3c2=O)c1

>  <tested.on>
PIK3CB (Human)

>  <measured.value>
> 10 µM

$$$$
>  <structure.string>
C[C@H](Nc1nc(N)ncc1C#N)c1cc2cccc(-c3cccc(O)n3)c2c(=O)n1-c1ccccc1

>  <tested.on>
PIK3CB (Human)

>  <measured.value>
> 10 µM

$$$$
>  <structure.string>
C[C@H](Nc1nc(N)ncc1C#N)c1cc2cccc(-c3ccc(S(C)(=O)=O)cc3)c2c(=O)n1-c1ccccc1

>  <tested.on>
PIK3CB (Human)

>  <measured.value>
> 10 µM

$$$$
